measurement-label: melting point

line_notation=O=C1NC(=O)c2ccccc2/C1=C/Nc1ccc2cn[nH]c2c1 experimental_value="> 300 °C"
line_notation=O=C1NC(=O)c2ccc(Br)cc2/C1=C/NCc1ccncc1 experimental_value="258 to 259 °C"
line_notation=CN1CCN(c2ccc(N/C=C3\C(=O)NC(=O)c4ccc(-c5ccc(-c6cccs6)s5)cc43)cc2)CC1 experimental_value="204 to 205 °C"
line_notation=O=C1NC(=O)c2ccc(Br)cc2/C1=C/Nc1ccc(N2CCC(N3CCCC3)CC2)c(F)c1 experimental_value="204 to 205 °C"
line_notation=CCCOc1ccc(CN/C=C2\C(=O)NC(=O)c3ccc(I)cc32)nc1Br experimental_value="251 to 253 °C (dec.)"

====

Target: cyclin E/CDK2 enzyme (Homo sapiens, UniProt P24941)
Construct: made in house; host or cells: Sf9 insect cells, recombinant baculovirus
Experiment: CDK2 ELISA kinase assay (phospho-Rb ser 795 detection)
Assay type: biochemical
Details: In Vitro Enzyme Assays, read-out: CDK2 IC50
The compounds listed here are annotated with their IC50.
measurement-label: IC50 (µM)

compound="CN(CCO)c1ccc(N/C=C2\\C(=O)NC(=O)c3ccc(Br)cc32)cc1 [Example 244]" target_desc="cyclin E/CDK2 enzyme (Homo sapiens, UniProt P24941)" measurement_label=IC50 sign_qualifier=> experimental_value=50
compound="COCC(C)N1CCN(c2ccc(N/C=C3\\C(=O)NC(=O)c4ccc(I)cc43)cc2)CC1 (centres unmarked) [Example 399]" target_desc="cyclin E/CDK2 enzyme (Homo sapiens, UniProt P24941)" measurement_label=IC50 sign_qualifier=> experimental_value=50
compound="CN(C)C/C=C/C(=O)N1CCCC1c1ccc(N/C=C2\\C(=O)NC(=O)c3ccc(I)cc32)cc1 (centres unmarked) [Example 402]" target_desc="cyclin E/CDK2 enzyme (Homo sapiens, UniProt P24941)" measurement_label=IC50 sign_qualifier=> experimental_value=50
compound="CC#CC(=O)Nc1ccc(CN/C=C2\\C(=O)NC(=O)c3ccc(I)cc32)cc1O [Example 339]" target_desc="cyclin E/CDK2 enzyme (Homo sapiens, UniProt P24941)" measurement_label=IC50 sign_qualifier== experimental_value=0.37
compound="CN1CCN(c2ccc(N/C=C3\\C(=O)NC(=O)c4ccc(-c5ccc(C=O)cc5)cc43)cc2)CC1 [Example 115]" target_desc="cyclin E/CDK2 enzyme (Homo sapiens, UniProt P24941)" measurement_label=IC50 sign_qualifier== experimental_value=7.7
compound="CCC(=O)Nc1ccc(CN/C=C2\\C(=O)NC(=O)c3ccc(Br)cc32)cc1 [Example 321]" target_desc="cyclin E/CDK2 enzyme (Homo sapiens, UniProt P24941)" measurement_label=IC50 sign_qualifier== experimental_value=3.6
compound="C=CCN1CCCC1c1ccc(N/C=C2\\C(=O)NC(=O)c3ccc(I)cc32)cc1 (centres unmarked) [Example 419]" target_desc="cyclin E/CDK2 enzyme (Homo sapiens, UniProt P24941)" measurement_label=IC50 sign_qualifier== experimental_value=31
compound="CN1CCN(c2ccc(N/C=C3\\C(=O)NC(=O)c4ccc(I)cc43)cc2)CC1 [Example 81]" target_desc="cyclin E/CDK2 enzyme (Homo sapiens, UniProt P24941)" measurement_label=IC50 sign_qualifier=> experimental_value=50
compound="CC1CN(c2ccc(N/C=C3\\C(=O)NC(=O)c4ccc(Br)cc43)cc2)CC(C)N1 (centres unmarked) [Example 201]" target_desc="cyclin E/CDK2 enzyme (Homo sapiens, UniProt P24941)" measurement_label=IC50 sign_qualifier=> experimental_value=50
compound="O=C1NC(=O)c2ccc(Br)cc2/C1=C/NCc1cc(O)cc(O)c1 [Example 64]" target_desc="cyclin E/CDK2 enzyme (Homo sapiens, UniProt P24941)" measurement_label=IC50 sign_qualifier== experimental_value=0.62
compound="CC(C)[Si](Oc1cc(CN/C=C2\\C(=O)NC(=O)c3ccc(I)cc32)ccc1N)(C(C)C)C(C)C [Example 323]" target_desc="cyclin E/CDK2 enzyme (Homo sapiens, UniProt P24941)" measurement_label=IC50 sign_qualifier== experimental_value=42.5
compound="COCC1CCN(c2ccc(N/C=C3\\C(=O)NC(=O)c4ccc(I)cc43)cc2)CC1 [Example 435]" target_desc="cyclin E/CDK2 enzyme (Homo sapiens, UniProt P24941)" measurement_label=IC50 sign_qualifier== experimental_value=38.8
compound="CN(C)CCNCC1CCN(c2ccc(N/C=C3\\C(=O)NC(=O)c4ccc(I)cc43)cc2)CC1 [Example 446]" target_desc="cyclin E/CDK2 enzyme (Homo sapiens, UniProt P24941)" measurement_label=IC50 sign_qualifier=> experimental_value=50
compound="C[C@@H]1CN(c2c(F)cc(N/C=C3\\C(=O)NC(=O)c4ccc(-c5ccsc5)cc43)cc2F)C[C@H](C)N1 [Example 383]" target_desc="cyclin E/CDK2 enzyme (Homo sapiens, UniProt P24941)" measurement_label=IC50 sign_qualifier== experimental_value=25.9
compound="O=C1NC(=O)c2ccc(I)cc2/C1=C/Nc1ccc(N2CCN(CC3CC3)CC2)nc1 [Example 415]" target_desc="cyclin E/CDK2 enzyme (Homo sapiens, UniProt P24941)" measurement_label=IC50 sign_qualifier=> experimental_value=50
compound="CCCOc1ccc(CN/C=C2\\C(=O)NC(=O)c3ccc(-c4ccc(F)cc4)cc32)cc1O [Example 192]" target_desc="cyclin E/CDK2 enzyme (Homo sapiens, UniProt P24941)" measurement_label=IC50 sign_qualifier=> experimental_value=50
compound="Nc1cnc(CN/C=C2\\C(=O)NC(=O)c3ccc(I)cc32)cc1O [Example 424]" target_desc="cyclin E/CDK2 enzyme (Homo sapiens, UniProt P24941)" measurement_label=IC50 sign_qualifier== experimental_value=1.5
compound="O=C1NC(=O)c2ccc(-c3ccsc3)cc2/C1=C/Nc1cc(F)c(N2CCN3CCC[C@H]3C2)c(F)c1 [Example 371]" target_desc="cyclin E/CDK2 enzyme (Homo sapiens, UniProt P24941)" measurement_label=IC50 sign_qualifier=> experimental_value=50
compound="COc1cnc(CNC=C2C(=O)NC(=O)c3ccc(I)cc32)cc1O [Example 362]" target_desc="cyclin E/CDK2 enzyme (Homo sapiens, UniProt P24941)" measurement_label=IC50 sign_qualifier== experimental_value=0.5
compound="O=C1NC(=O)c2ccc(I)cc2/C1=C/Nc1ccc(N2CCNCC2)cc1 [Example 378]" target_desc="cyclin E/CDK2 enzyme (Homo sapiens, UniProt P24941)" measurement_label=IC50 sign_qualifier== experimental_value=15.4
compound="O=C1NC(=O)c2ccc(I)cc2/C1=C/Nc1ccc(N2CCN(CCO)CC2)cc1 [Example 401]" target_desc="cyclin E/CDK2 enzyme (Homo sapiens, UniProt P24941)" measurement_label=IC50 sign_qualifier=> experimental_value=50
compound="O=C1NC(=O)c2ccc(-c3ccsc3)cc2/C1=C/Nc1ccc(C2CC=CCN2)cc1 (centres unmarked) [Example 404]" target_desc="cyclin E/CDK2 enzyme (Homo sapiens, UniProt P24941)" measurement_label=IC50 sign_qualifier== experimental_value=14.4
compound="O=C1NC(=O)c2ccc(Br)cc2/C1=C/NCc1ccc(OCC2CC2)c(O)c1 [Example 219]" target_desc="cyclin E/CDK2 enzyme (Homo sapiens, UniProt P24941)" measurement_label=IC50 sign_qualifier=> experimental_value=50

====

Biological target: cyclin D1/cdk 4 enzyme (Homo sapiens, UniProt P11802)
Construct: made in house; host or cells: Sf9 insect cells, recombinant baculovirus
Sequence (P11802 whole entry, species assumed): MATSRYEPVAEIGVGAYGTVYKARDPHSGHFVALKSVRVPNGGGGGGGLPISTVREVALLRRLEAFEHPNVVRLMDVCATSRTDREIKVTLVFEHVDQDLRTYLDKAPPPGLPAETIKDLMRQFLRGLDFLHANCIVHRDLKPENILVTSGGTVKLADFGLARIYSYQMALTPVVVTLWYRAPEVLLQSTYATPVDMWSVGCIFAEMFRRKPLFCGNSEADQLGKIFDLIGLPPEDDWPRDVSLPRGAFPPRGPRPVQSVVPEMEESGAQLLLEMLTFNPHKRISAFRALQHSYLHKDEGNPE
Sequence (P24385 whole entry partner, species assumed): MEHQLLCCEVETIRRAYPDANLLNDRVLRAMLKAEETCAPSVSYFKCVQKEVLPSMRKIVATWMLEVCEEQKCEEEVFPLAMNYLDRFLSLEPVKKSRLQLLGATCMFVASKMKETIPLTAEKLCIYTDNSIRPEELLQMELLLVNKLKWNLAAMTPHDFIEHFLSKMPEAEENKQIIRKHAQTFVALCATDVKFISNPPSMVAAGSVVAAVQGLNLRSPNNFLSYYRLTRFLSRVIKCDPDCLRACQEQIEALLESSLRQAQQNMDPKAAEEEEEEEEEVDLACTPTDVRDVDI
Test: CDK4 ELISA kinase assay (phospho-Rb ser 795 detection)
Type: biochemical
Conditions: In Vitro Enzyme Assay, cyclin D1/cdk 4, read-out: CDK4 IC50
measurement-label: log10 IC50 (log10 of the value in nM)

compound="O=C1NC(=O)c2ccccc2C1=CNCC(O)c1ccc(O)c(O)c1 (centres unmarked)" measurement_label="log10 IC50" experimental_value=4.11
compound=N#CCc1ccc(NC=C2C(=O)NC(=O)c3ccc(-c4ccc5[nH]ccc5c4)cc32)cc1 measurement_label="log10 IC50" experimental_value=3.74
compound=O=C1NC(=O)c2ccccc2/C1=C/Nc1ccc(CN2CCCC2)cc1 measurement_label="log10 IC50" experimental_value=3.88
compound=CCCCn1ccc(CN/C=C2\C(=O)NC(=O)c3ccc(I)cc32)cc1=O measurement_label="log10 IC50" experimental_value=2.00
compound=CC(C)(C)c1ccc2c(c1)/C(=C/NCc1cc(O)c(-c3ccoc3)cc1F)C(=O)NC2=O measurement_label="log10 IC50" experimental_value=1.95
compound=O=C1NC(=O)c2ccc(-c3ccc(Cl)cc3)cc2C1=CNCc1ccc(O)c(O)c1 measurement_label="log10 IC50" experimental_value=2.08
compound=COc1ccc(CNC=C2C(=O)NC(=O)c3ccc(-c4ccco4)cc32)cc1O measurement_label="log10 IC50" experimental_value=1.30
compound=O=C1NC(=O)c2ccc(-c3ccccc3Cl)cc2C1=CNCc1ccc(O)c(O)c1 measurement_label="log10 IC50" experimental_value=2.83
